Ki values recorded for Amine oxidase [flavin-containing] B (Homo sapiens)
ASSAY METRIC: Ki (µM)

1. NC1CC1c1cc(F)cc(F)c1OCc1ccccc1 (configuration not stated); 17
2. N[C@@H]1C[C@H]1c1ccc(OCC[C@H](NC(=O)c2ccccc2)C(=O)NCc2ccccc2)cc1; 1700

---

Ki values recorded for Amine oxidase [flavin-containing] A (Homo sapiens, UniProt P21397)
ASSAY METRIC: Ki (µM)

1) NC1CC1c1cccc(OCC[C@H](NC(=O)c2ccccc2)C(=O)NCc2ccccc2)c1 (stereo partly drawn); 230
2) N[C@@H]1C[C@H]1c1ccc(OCC[C@H](NC(=O)c2ccccc2)C(=O)NCc2ccccc2)cc1; 250
3) NC1CC1c1cc(F)cc(F)c1OCc1ccccc1 (stereo not drawn); 110
